Attribute: First phase (acute pain) Rat (40 g) nmol
- Test system: male Wistar rats
- Assay notes: Formalin test (nociceptive behaviour, spontaneous jerking of injected paw)
- Type: in vivo, rat
- Particulars: Table 2, per 40 g rat
Answer with a number only, understood to be in nmol.

Worked cases, answers included:
Compound | Display unit | First phase (acute pain) Rat (40 g) nmol
Nc1ncnc2c1ncn2[C@@H]1O[C@H](COP(=O)(O)OP(=O)(O)NP(=O)(O)OP(=O)(O)OC[C@H]2O[C@@H](n3cnc4c(N)ncnc43)C(O)C2O)C(O)C1O (stereo in doubt) | nmol | 10
Nc1ncnc2c1ncn2[C@@H](CO)O[C@@H](CO)COP(=O)(O)OP(=O)(O)CP(=O)(O)OP(=O)(O)OC[C@H](CO)O[C@H](CO)n1cnc2c(N)ncnc21 | nmol | 5
Nc1nc2c(ncn2[C@@H]2O[C@H](COP(=O)(O)OP(=O)(O)CP(=O)(O)OP(=O)(O)OC[C@H]3O[C@@H](n4cnc5c(N)ncnc54)C(O)C3O)C(O)[C@@H]2O)c(=O)[nH]1 (stereo partly shown) | nmol | 10

Consider the record given below.
Challenge: GET /values?readout=First phase (acute pain) Rat (40 g) nmol&item= Nc1ncnc2c1ncn2[C@@H]1O[C@H](COP(=O)(O)OP(=O)(O)CP(=O)(O)OP(=O)(O)OC[C@H]2O[C@@H](n3cnc4c(N)ncnc43)C(O)C2O)C(O)C1O (stereo in doubt)
Response given: 3.2

* * *

- Assay target: rat homomeric P2X3 receptors (Rattus norvegicus)
- Construct: transfected with rat full-length P2X3 cDNA subcloned into pIRES2-EGFP; expressed in transfected cells; host or cells: HEK293T
- Sequence (P49654 whole entry): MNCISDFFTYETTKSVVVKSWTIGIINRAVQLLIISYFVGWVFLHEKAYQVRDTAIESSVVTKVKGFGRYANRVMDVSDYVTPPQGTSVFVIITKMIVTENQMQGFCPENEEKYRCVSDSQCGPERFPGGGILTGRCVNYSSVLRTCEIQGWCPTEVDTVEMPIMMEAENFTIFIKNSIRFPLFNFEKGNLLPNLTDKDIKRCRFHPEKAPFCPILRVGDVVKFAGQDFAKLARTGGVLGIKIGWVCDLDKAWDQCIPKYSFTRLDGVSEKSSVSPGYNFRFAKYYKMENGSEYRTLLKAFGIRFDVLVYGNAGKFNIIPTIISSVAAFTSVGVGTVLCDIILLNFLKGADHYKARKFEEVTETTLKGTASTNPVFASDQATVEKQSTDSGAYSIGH
- Assay notes: Whole-cell patch clamp on HEK cells expressing rat homomeric P2X3 receptors
- Type: cell-based
- Particulars: agonist applied for 2 s; read-out: EC50 for activation of P2X3 mediated currents
Property label: pEC50
Keep in mind that pEC50 stands for -log10 of concentration in molar terms.

Challenge: GET /values?readout=pEC50&item= Nc1ncnc2c1ncn2[C@@H]1O[C@H](COP(=O)(O)OP(=O)(O)CP(=O)(O)OP(=O)(O)OC[C@H]2O[C@@H](n3cnc4c(N)ncnc43)C(O)C2O)C(O)C1O (stereo in doubt) [AppCH2ppA]
Response given: 5.03

* * *

- Tested on: male Wistar rats
- Assay notes: Formalin test (nociceptive behaviour, spontaneous jerking of injected paw)
- Assay type: in vivo, rat
- Particulars: Table 2, per 40 g rat
Property label: Second phase (chronic pain) Rat (40 g) nmol (nmol)
Answer with a number only, understood to be in nmol.

Worked cases, answers included:
Compound | Assay target | Meas value
Nc1ncnc2c1ncn2[C@@H](CO)O[C@@H](CO)COP(=O)(O)OP(=O)(O)CP(=O)(O)OP(=O)(O)OC[C@H](CO)O[C@H](CO)n1cnc2c(N)ncnc21 | male Wistar rats | 0.0084
Nc1nc2c(ncn2[C@@H]2O[C@H](COP(=O)(O)OP(=O)(O)CP(=O)(O)OP(=O)(O)OC[C@H]3O[C@@H](n4cnc5c(N)ncnc54)C(O)C3O)C(O)[C@@H]2O)c(=O)[nH]1 (stereo partly shown) | male Wistar rats | 0.018
Nc1ncnc2c1ncn2[C@@H]1O[C@H](COP(=O)(O)OP(=O)(O)NP(=O)(O)OP(=O)(O)OC[C@H]2O[C@@H](n3cnc4c(N)ncnc43)C(O)C2O)C(O)C1O (stereo in doubt) | male Wistar rats | 0.0252

Consider the record given below.
Challenge: GET /values?readout=Second phase (chronic pain) Rat (40 g) nmol&item= Nc1ncnc2c1ncn2[C@@H]1O[C@H](COP(=O)(O)OP(=O)(O)CP(=O)(O)OP(=O)(O)OC[C@H]2O[C@@H](n3cnc4c(N)ncnc43)C(O)C2O)C(O)C1O (stereo in doubt)
Response given: 0.0512
